# TARGET: Dual specificity protein phosphatase 3 (Homo sapiens, UniProt P51452)
# Sequence (P51452 whole entry): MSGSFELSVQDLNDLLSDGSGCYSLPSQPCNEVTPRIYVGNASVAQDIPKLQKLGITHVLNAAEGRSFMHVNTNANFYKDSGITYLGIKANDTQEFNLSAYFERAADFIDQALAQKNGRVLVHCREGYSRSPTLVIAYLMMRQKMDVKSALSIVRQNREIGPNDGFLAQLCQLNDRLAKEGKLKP
RECORDED ENDPOINT: Ki (µM)
Use µM as the unit, but write only the number.

// lookup Ki for `NC(=O)[C@H](CCC(=O)O)NC(=O)[C@H](CCC(=O)O)NC(=O)CNC(=O)c1ccc(/C=C/C=O)cc1`
290

---

# TEST DESCRIPTION: Tested for effect on inhibition of DSP VH1 (dual-specificity phosphatase vaccinia open reading frame H1) and the value reported is overall equilibrium constant
RECORDED ENDPOINT: Ki (µM)
Use µM as the unit, but write only the number.

// lookup Ki for `NC(=O)[C@H](CCC(=O)O)NC(=O)[C@H](CCC(=O)O)NC(=O)CNC(=O)c1ccc(/C=C/C=O)cc1`
18

FYI, the data here is from ChEMBL document CHEMBL1137841.
